Hello, the source for this data is paper PMC5540273, in case you need it.

Tested on: PAK7;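 note: KINOMEscan kinase panel screen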
Conditions: concentration: 1 μM, replicates: in singlicate; n = 1
Exercise: for every item that follows, state its recorded %Inh.
Just the number please, in %, no unit attached.

For Nc1nc(-c2ccccc2F)c(-c2ccnc3ccccc23)s1 the compound record lists %Inh as 0

For O=C(Nc1n[nH]c2nc(-c3ccccc3)c(Br)cc12)C1CC1 the compound record lists %Inh as 0

For FC(F)(F)c1ccc(-c2ncn(CCCN3CCOCC3)c2-c2ccncc2)cc1 the compound record lists %Inh as 0

For COc1ccc(-c2cc3c(C)nc(N)nc3n([C@H]3CC[C@H](O)CC3)c2=O)cn1 the compound record lists %Inh as 0

For CCc1ccc(-c2ccc3c(c2)-c2nn(C)cc2S(=O)(=O)N3C)cc1 the compound record lists %Inh as 0

For CCC(=O)c1c(-c2ccccc2)c2cc(Cl)ccc2c(=O)n1Cc1cc(S(C)(=O)=O)n(CCC(C)(C)O)n1 the compound record lists %Inh as 2

For COc1cc2ncn(-c3cc(OCCCc4ccccc4)c(C(N)=O)s3)c2cc1OC the compound record lists %Inh as 0

For COC(=O)c1c(-c2ccccc2)c2cc(C)ccc2c(=O)n1Cc1ccccc1 the compound record lists %Inh as 0

For COC(=O)c1c(-c2ccccc2)c2cc(Br)ccc2c(=O)n1Cc1ccc(NC(=O)CCC(=O)O)cc1 the compound record lists %Inh as 2

For CCC(=O)c1c(-c2ccccc2)c2cc(Cl)ccc2c(=O)n1Cc1cc(S(C)(=O)=O)n(CC(F)F)n1 the compound record lists %Inh as 0

For CC(C)(C)c1ccc(C(=O)Nc2cn3cc(-c4ccccc4)ccc3n2)cc1 the compound record lists %Inh as 6

For Nc1ncnc2c1ncn2-c1cccc2ccccc12 the compound record lists %Inh as 0

For O=C(Nc1n[nH]c2nc(-c3ccccc3)c(Cl)cc12)C1CC1 the compound record lists %Inh as 7

For COc1cc2ncn(-c3cc(OCc4ccncc4)c(C(N)=O)s3)c2cc1OC the compound record lists %Inh as 0

For COc1ccc(-n2cnc3c(N)ncnc32)cc1 the compound record lists %Inh as 0

For COc1cc(Nc2ccnc3ccc(C(F)(F)F)cc23)cc(OC)c1OC the compound record lists %Inh as 7

For Cc1ccc(-c2ccc3c(ccc4sc5c(c43)NC[C@@H](C)N=C5N(C)C)n2)cn1 the compound record lists %Inh as 10

For CCc1nc(-c2cccc(C)c2)c(-c2ccncc2)s1 the compound record lists %Inh as 0

For CCS(=O)c1ccc(-c2coc3ccc(-c4nnc(C)o4)cc23)cc1 (stereo not shown) the compound record lists %Inh as 0

For Cc1cccc(-c2nc(Nc3ccc4c(cnn4C)c3)c3ccccc3n2)n1 the compound record lists %Inh as 0

For COc1cc2ncn(-c3cc(OCc4ccc(S(C)(=O)=O)cc4)c(C(N)=O)s3)c2cc1OC the compound record lists %Inh as 0

For Cc1nn2c(=O)cc(N3CCOCC3)nc2n1Cc1cccc(Cl)c1Cl the compound record lists %Inh as 0

For CCS(=O)(=O)c1ccc(OC)c(Nc2ncc(-c3ccc(F)cc3)o2)c1.Cl the compound record lists %Inh as 14

For COc1ccc(CNC(=O)NC2CCN(c3ccnc(Nc4ccc(F)cc4)n3)C2)cc1 (stereo not shown) the compound record lists %Inh as 3

For CN1C(=O)C(Nc2cc(Cl)c(O)c(Cl)c2)=C(c2ccc(Cl)cc2)C1=O the compound record lists %Inh as 5

For COc1cc2nccc(Nc3ccc(OCc4ccc(NC(C)=O)cc4)cc3)c2cc1OC.Cl the compound record lists %Inh as 0

For CCn1c(-c2ccoc2)nc2cnccc21 the compound record lists %Inh as 0

For COC(=O)c1c(-c2ccccc2)c2cc(Br)ccc2c(=O)n1Cc1ccc(S(C)(=O)=O)cc1 the compound record lists %Inh as 2
